binders and their reported Max MFI
- system name: T1, human GPC3 on CHO-K1-human GPC3 cells (CHOK1-hGPC3.2B5) (human, UniProt P51654 25-554)
- T1 construct: whole, on cells
- assay method text: FACS, CHOK1-hGPC3.2B5 cells;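 note: flow cytometry of humanized antibodies binding to the cells over one hour in the cold, read as cell mean fluorescence intensity, with EC50 obtained by curve fitting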
Respond with the bare value in MFI.

Take a look at these entries with their results.
binder	recorded result
hAb003LH1L1b (antibody, human IgG1, V domains shown, Humanized F2.154.1; VH H1 + VL L1b; expressed as human IgG1) VH: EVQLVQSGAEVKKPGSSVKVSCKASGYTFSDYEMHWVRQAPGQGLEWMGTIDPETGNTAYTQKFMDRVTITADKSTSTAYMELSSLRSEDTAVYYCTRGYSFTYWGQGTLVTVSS VL: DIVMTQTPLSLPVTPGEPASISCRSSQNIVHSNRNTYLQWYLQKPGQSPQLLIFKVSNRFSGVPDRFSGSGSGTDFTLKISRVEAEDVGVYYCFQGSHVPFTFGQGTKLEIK	5010
GC33 IgG (antibody, V domains shown, Control antibody expressed as complete IgG; also called codrituzumab) VH: QVQLVQSGAEVKKPGASVKVSCKASGYTFTDYEMHWVRQAPGQGLEWMGALDPKTGDTAYSQKFKGRVTLTADKSTSTAYMELSSLTSEDTAVYYCTRFYSYTYWGQGTLVTVSS VL: DVVMTQSPLSLPVTPGEPASISCRSSQSLVHSNRNTYLHWYLQKPGQSPQLLIYKVSNRFSGVPDRFSGSGSGTDFTLKISRVEAEDVGVYYCSQNTHVPPTFGQGTKLEIKR	17000

As a next step, examine the binder that follows.
Ask | Tell me the measured Max MFI of hAb001H1L1 (antibody, human IgG1, V domains shown, Humanized F2.169.2; VH H1 + VL L1; expressed as human IgG1) VH: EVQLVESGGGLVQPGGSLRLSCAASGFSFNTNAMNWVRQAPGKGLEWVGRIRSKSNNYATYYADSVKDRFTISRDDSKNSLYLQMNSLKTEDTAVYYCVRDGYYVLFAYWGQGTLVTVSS VL: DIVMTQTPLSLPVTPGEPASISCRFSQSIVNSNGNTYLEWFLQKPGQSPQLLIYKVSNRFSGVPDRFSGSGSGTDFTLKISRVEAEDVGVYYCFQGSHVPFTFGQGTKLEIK , please.
Reply | 3400
